system: PPARg homodimer (NR concentration 180 nM); test: PBM binding z-score (relative to random genomic background probes); higher = stronger binding; sequences stand for … in GC…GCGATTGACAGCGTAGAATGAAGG
observation_type: PBM binding z-score

Sample answers from the record:
item_sequence	target	observation_type	assay_result
AGTCAGAGTTCACTAGGTAACGTAAGATTCAGCT	PPARg homodimer (NR concentration 180 nM)	PBM binding z-score	2.37
TCATTTAGGTAAACAGGTGAAAGTCCGTAAGTTA	PPARg homodimer (NR concentration 180 nM)	PBM binding z-score	1.97
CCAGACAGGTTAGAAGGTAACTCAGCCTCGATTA	PPARg homodimer (NR concentration 180 nM)	PBM binding z-score	1.19
GCGACTGGGGCATCAGCAGGTTACCATGACTTAA	PPARg homodimer (NR concentration 180 nM)	PBM binding z-score	-0.0201
AGAAGGAGGTTACCAAAGATCAGGGAAACGCTTG	PPARg homodimer (NR concentration 180 nM)	PBM binding z-score	0.719

Record summary for GCAGACAGGTGAAACGCAGGGAACTCAGGGTGGC : reported PBM binding z-score = 0.0817

Reported PBM binding z-score ( TGAATGAGGTTATAGATCAGGGAACGTGGCGTCG ) = 1.11

Input CTACCAAGGTGAACAAGGTCGTTCATTACTATTC . Output PBM binding z-score: 1.03

###

test system: VDR:RXRa (NR concentration 270 nM, RXRa partner concentration 90 nM); assay: PBM binding z-score (relative to random genomic background probes); higher = stronger binding; sequences stand for … in GC…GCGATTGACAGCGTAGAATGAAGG
Assign class by PBM binding z-score: not lower than 1 means satisfied; lower than 1 means not satisfied.

Record excerpt, results attached:
item_sequence	assigned_label
ATCTCTAGGTAAGACTCACTTCAGTGAAGAACGC	not satisfied
TAGCCTAGGTCATTCAGGGGCCAGTAAAGAAAGC	satisfied
CGTCCAAGGTCAGCAGGTCAGTGACAGCGACGTG	satisfied

Q: Could you verify whether the entry CTCGAAAGGTCGTGCTCAGGTGGGTATACCAAAC shows PBM binding z-score of no less than 1?
A: satisfied

Q: Confirm if PBM binding z-score reported for the sequence CGACCAAGGTCATAGGAGGTCAGTGAAGACAGAT is 1 or above.
A: satisfied

Q: Kindly determine if PBM binding z-score recorded for AGAACGAGGGCACGCAGAGTTGATAGCAGAGTAG is above or exactly 1.
A: satisfied

Q: Is the recorded value of PBM binding z-score equal to or greater than 1 for this sequence? TGAATGAGGTTAAAGATCACGGAACGTGGCGTCG
A: satisfied

Q: Is PBM binding z-score at least 1? Consider CGAACTAGGTCATCCAGGACAGTGGATACATTGA
A: satisfied

Q: Reported PBM binding z-score reaches at least 1 for GCGACTGGGGCATCAGCAGGTTACCATAACTTAA ?
A: not satisfied

Q: Does CCGACTGGGGCTTAAGGTTACCATAAGCCAGCCC have a reported PBM binding z-score of at least 1?
A: not satisfied

Q: Kindly determine if PBM binding z-score recorded for ATATGTGGGTTACATCCGGGTCATTCAGGCTATG is above or exactly 1.
A: satisfied

Q: In plain terms: is recorded PBM binding z-score at least 1 for ATATTTAGGTTACATCCGGGTCATTCAGGCTATG ?
A: satisfied

Q: PBM binding z-score >= 1 for ATATGTACGTTAAGGGTCATTCAGGTTGGTTCGC ?
A: satisfied

Q: API: above_or_equal(metric=PBM binding z-score, cutoff=1) for item CTACCAAGGTGAAAAAGGTCGTTGATTACTATTC
A: satisfied

Q: Is it the case that TCAGACAGCTGAAGGTAACTCAGGTACGCAGTCG has PBM binding z-score reaching or exceeding 1?
A: not satisfied

Q: Could you tell me if the measured PBM binding z-score of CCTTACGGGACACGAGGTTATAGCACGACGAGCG reaches 1 or more?
A: not satisfied

Q: Given CCTCGGAGGACAGAAGGTGAGAGCTGTCCGCTTT , state whether its PBM binding z-score is at least 1.
A: not satisfied

Q: Determine whether measured PBM binding z-score meets or exceeds 1 for TCATATAGGTAAATGCTAGGTCAAAGTCCGATCT
A: satisfied

Q: Item CAAACTAGGTCAAGGTCAAAGTCGGTTTGTGCCA with PBM binding z-score of 1 or above?
A: satisfied

Q: Say whether CGTCCAAGGTCAGAGGAGGTCAGTGAAGACAGAT shows PBM binding z-score of 1 or more.
A: satisfied

Q: For this sequence, is measured PBM binding z-score 1 or higher? ATATGTAGGTTAAGGGTGATTCAGGTTGGTTCGC
A: satisfied

Q: Dear colleague, could you confirm whether TCATATAGGTAAAGCTGAAAGTCGAACGATATGA has PBM binding z-score at or above 1?
A: not satisfied

Q: Does the sequence AGCATGAGGTTAAGATCAGGGAAACAGAATACAT have recorded PBM binding z-score that is 1 or more?
A: satisfied

Q: Given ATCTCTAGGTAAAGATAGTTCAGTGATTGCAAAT , state whether its PBM binding z-score is at least 1.
A: satisfied

Q: Is the recorded value of PBM binding z-score equal to or greater than 1 for this sequence? CCGACTTGGGCATAAGGTTACCATAAGCCAGCCC
A: not satisfied

// provenance: the supplement of paper PMC6555819
